- Test system: neurotoxicity (rotorod)
- assay_explanation: rotorod toxicity, oral rat (Phase VIA/VIB)
- Format: in vivo, male Sprague-Dawley rats
- cond: rat oral, 30 mg/kg, 0.50 h
quantity_measured: Tox

The examples below pair each entry with its known result.
molecule	Tox
CCOC(=O)[C@@H]1C(=O)C2=C(C[C@H]1C)Nc1ccccc1S2 (relative stereo)	1/2
C[C@@H]1CC2=C(Sc3cc(Br)ccc3N2)C(=O)[C@H]1C(=O)OC(C)(C)C (relative stereo)	0/4

Let us examine a further case.
Query: Recall and state the measured Tox for CCOC(=O)[C@@H]1C(=O)C2=C(C[C@H]1C)Nc1ccc(Cl)cc1S2 (relative stereo) .
Response: 0/4
